studySystem: Acetylcholinesterase (Rattus norvegicus)
Sequence (P37136 whole entry): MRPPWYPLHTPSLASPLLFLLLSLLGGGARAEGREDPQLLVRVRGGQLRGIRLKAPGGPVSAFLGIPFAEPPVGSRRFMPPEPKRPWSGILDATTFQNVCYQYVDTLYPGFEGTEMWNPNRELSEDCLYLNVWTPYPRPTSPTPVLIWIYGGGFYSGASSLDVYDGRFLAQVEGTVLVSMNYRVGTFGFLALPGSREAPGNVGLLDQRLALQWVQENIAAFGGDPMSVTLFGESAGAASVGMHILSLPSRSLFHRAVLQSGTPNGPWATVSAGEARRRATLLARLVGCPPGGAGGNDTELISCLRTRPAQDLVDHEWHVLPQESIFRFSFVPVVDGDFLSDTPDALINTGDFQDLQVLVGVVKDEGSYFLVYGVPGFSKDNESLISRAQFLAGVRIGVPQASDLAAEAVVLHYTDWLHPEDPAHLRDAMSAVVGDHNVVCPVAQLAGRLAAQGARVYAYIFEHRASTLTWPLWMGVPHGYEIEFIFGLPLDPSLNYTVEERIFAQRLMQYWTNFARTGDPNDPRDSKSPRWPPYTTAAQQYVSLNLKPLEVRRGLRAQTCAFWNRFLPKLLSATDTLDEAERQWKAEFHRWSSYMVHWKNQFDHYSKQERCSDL
pIC50: −log10 of the molar value.
readout: pIC50

// fetch Acetylcholinesterase (Rattus norvegicus) pIC50 for `C=Cc1cccn1N(C)c1ccncc1`
< 4.00
